# Assay target: HLA-A*02:01 (Homo sapiens, UniProt P04439, D140Y/D185E/D98H/E176V/E277Q/G131W/G231S/I119V/I121R/I166T/I218V/L300P/L318F/N151K/N90K/P208A/P217A/Q86G/Q94H/R138H/R169H/T345S)
# Protocol description: MHC binding assay (UV-ligand exchange, beta2m ELISA, peptide exchange yield)
# Run parameters: binding of HLA-class I restricted peptides to HLA-A*02:01, ranged by peptide exchange yield (UV-ligand exchange, β2m ELISA)
Quantity kind: Peptide exchange

{"Substance": "121 (GVVDPRAISVL; listed as Homo sapiens) [compound 121]", "Quantity kind": "Peptide exchange", "Experimental result": "″++″ (≥20% = ++)"}
{"Substance": "136 (YLADPSNLFVV; listed as Homo sapiens) [compound 136]", "Quantity kind": "Peptide exchange", "Experimental result": "″+++″ (≥50% = +++)"}
{"Substance": "218 (SALEELVNV; listed as Homo sapiens) [compound 218]", "Quantity kind": "Peptide exchange", "Experimental result": "″++″ (≥20% = ++)"}
{"Substance": "119 (FLYIGDIVSL; listed as Homo sapiens) [compound 119]", "Quantity kind": "Peptide exchange", "Experimental result": "″++++″ (≥75% = ++++)"}

Given 448 (NLLETKLQL; listed as Homo sapiens) [compound 448] , state its recorded Peptide exchange.
″+++″ (≥50% = +++)

For 132 (LLVEQPPLAGV; listed as Homo sapiens) [compound 132] then?
″+++″ (≥50% = +++)

For 102 (YLFESEGLVL; listed as Homo sapiens) [compound 102] then?
″+++″ (≥50% = +++)

For 584 (ALAEVAAMENV; listed as Homo sapiens) [compound 584] then?
″+++″ (≥50% = +++)

For 225 (SLLKVLPAL; listed as Homo sapiens) [compound 225] then?
″+++″ (≥50% = +++)

For 137 (TLVLTLPTV; listed as Homo sapiens) [compound 137] then?
″++++″ (≥75% = ++++)

For 169 (NLPEYLPFV; listed as Homo sapiens) [compound 169] then?
″+++″ (≥50% = +++)

For 177 (YLLPEEYTSTL; listed as Homo sapiens) [compound 177] then?
″++++″ (≥75% = ++++)

For 139 (SVMEVNSGIYRV; listed as Homo sapiens) [compound 139] then?
″+++″ (≥50% = +++)

For 250 (ALSEEGLLVYL; listed as Homo sapiens) [compound 250] then?
″+++″ (≥50% = +++)

For 5 (HLTEVYPEL; listed as Homo sapiens) [compound 5] then?
″+++″ (≥50% = +++)

For 246 (LLWEVVSQL; listed as Homo sapiens) [compound 246] then?
″+++″ (≥50% = +++)

----------
# Assay target: HLA-A*02:01 (Homo sapiens, UniProt P04439, D140Y/D185E/D98H/E176V/E277Q/G131W/G231S/I119V/I121R/I166T/I218V/L300P/L318F/N151K/N90K/P208A/P217A/Q86G/Q94H/R138H/R169H/T345S)
# Protocol description: MHC binding assay (UV-ligand exchange, beta2m ELISA, peptide exchange yield)
# Run parameters: binding of HLA-class I restricted peptides to HLA-A*02:01, ranged by peptide exchange yield (UV-ligand exchange, β2m ELISA)

{"Substance": "25 (FLPDEPYIKV; listed as Homo sapiens) [compound 25]", "Peptide exchange": "″+++″ (≥50% = +++)"}
{"Substance": "440 (ALADGVTMQV; listed as Homo sapiens) [compound 440]", "Peptide exchange": "″++″ (≥20% = ++)"}
{"Substance": "272 (ALGNTVPAV; listed as Homo sapiens) [compound 272]", "Peptide exchange": "″+++″ (≥50% = +++)"}
{"Substance": "354 (LILEGVDTV; listed as Homo sapiens) [compound 354]", "Peptide exchange": "″++″ (≥20% = ++)"}
